test: SW1088 Cancer Cell Toxicity qHTS against the NCATS CANVASS Library (AID 1347350); details: SW1088 viability, CellTiter-Glo luminescence, 72 h; series mostly up to 38.3 µM; further: nearly all actives have a fitted effect of over 75% in size
Inconclusive results are not listed. Activity calls are given as the source filed them. The call rests on the fitted dose curve; in most records, active means well fitted cell-killing curve with a large enough effect; inconclusive means small, poorly fitted or top-dose-only effect; inactive means flat fitted curve, though single readings scatter.
Classes to choose from: active, inactive

Worked cases, answers included:
INSERT INTO measurements (compound, grouplabel) VALUES
  ('COC1C(O)C(C)OC(OC2C(Oc3cccc4c(O)c5c(=O)oc6ccc(C)c7c(=O)oc(c34)c5c67)OC(C)C(O)C2O)C1O (centres undefined)', 'inactive'),
  ('CC[C@@H]1CN2CCC3(Nc4cccc(OC)c4C3=O)[C@@H]2C[C@@H]1/C(=C\OC)C(=O)OC (some centres undefined)', 'inactive');

Query: Call for entry C/C=C/[C@@H]1[C@H]2C[C@@H](C)CC[C@@H]2C(C)=C[C@H]1C(=O)c1c(O)c(-c2ccc(O)cc2)c[nH]c1=O :
Response: active

Query: What would you report for C[C@]12CC(O)C3[C@@H](CCC4C[C@@H](O)CC[C@@]43CO)[C@@]1(O)CC[C@@H]2C1=CC(=O)OC1 (some centres undefined) ?
Response: inactive

---

target: Androgen receptor (Homo sapiens) (UniProt P10275); test: qHTS assay for small molecule agonists of androgen receptor signaling (AID 588515); settings: AR-UAS-bla HEK293, beta-lactamase ratio, agonist 16 h; stronger effect = higher value; further: on the % scale 0 is the no-effect control and ±100 the full control effect
Sequence (P10275 whole entry, looked up): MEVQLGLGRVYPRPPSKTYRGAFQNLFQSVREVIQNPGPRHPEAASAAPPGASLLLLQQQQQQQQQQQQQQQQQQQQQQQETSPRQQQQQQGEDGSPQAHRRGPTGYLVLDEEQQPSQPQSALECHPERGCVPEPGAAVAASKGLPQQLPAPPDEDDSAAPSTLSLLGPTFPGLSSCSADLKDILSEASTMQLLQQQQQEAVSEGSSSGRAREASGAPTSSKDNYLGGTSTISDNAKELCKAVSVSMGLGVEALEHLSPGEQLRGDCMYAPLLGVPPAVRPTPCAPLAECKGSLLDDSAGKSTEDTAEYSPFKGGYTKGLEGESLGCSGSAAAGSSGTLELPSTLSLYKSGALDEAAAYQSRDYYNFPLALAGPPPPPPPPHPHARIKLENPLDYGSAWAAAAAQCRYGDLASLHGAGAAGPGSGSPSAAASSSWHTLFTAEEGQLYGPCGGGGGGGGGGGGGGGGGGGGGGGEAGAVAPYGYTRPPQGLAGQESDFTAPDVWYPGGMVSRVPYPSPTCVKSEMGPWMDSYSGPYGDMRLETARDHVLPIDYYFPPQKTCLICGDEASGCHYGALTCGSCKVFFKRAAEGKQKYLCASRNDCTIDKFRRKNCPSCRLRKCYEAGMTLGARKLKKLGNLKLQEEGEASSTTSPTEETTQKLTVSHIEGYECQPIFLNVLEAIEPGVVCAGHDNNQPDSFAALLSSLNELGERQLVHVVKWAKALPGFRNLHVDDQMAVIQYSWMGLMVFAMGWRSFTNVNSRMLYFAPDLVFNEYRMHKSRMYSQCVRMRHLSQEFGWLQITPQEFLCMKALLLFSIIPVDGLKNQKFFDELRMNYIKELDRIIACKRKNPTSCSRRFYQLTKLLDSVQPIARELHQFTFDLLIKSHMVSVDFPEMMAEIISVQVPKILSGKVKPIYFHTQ
Inconclusive results are not listed.
outcomeMeasure: activation (%)
Respond numerically; units are % and should not be typed.

// known answers, use as guide
INSERT INTO assay_data (molecule, unitofmeasure, readoutnumber) VALUES
  ('c1ccc2c(c1)CCCC2', '%', -2.87),
  ('Cc1ccc2ccccc2c1', '%', 23);

Query: Could you share which activation value was measured for COC1=CC(=O)OC(CCc2ccccc2)C1 (stereo unspecified) ?
Response: -22.1

Query: Can you handle O=C(O)COc1cc(Cl)c(Cl)cc1Cl next?
Response: -1.88

Query: And the next one, CC(C)(C)OO ?
Response: -8.84

Query: Consider next the molecule S=C=Nc1cccc2ccccc12 in the same way.
Response: -5.44

Query: // same read-out, input: O=S1OCC2C(CO1)C1(Cl)C(Cl)=C(Cl)C2(Cl)C1(Cl)Cl (stereo unspecified)
Response: -11.1

Query: What would you report for Clc1ccc2ccccc2c1 ?
Response: 11.2

Query: Moving on to the next molecule: CCSC(=O)Cl
Response: 5.7

Query: Now consider O=C(Cl)/C=C/C(=O)Cl .
Response: 8.8

Query: Check CC(COc1ccc(Oc2ccccc2)cc1)Oc1ccccn1 (stereo unspecified) too.
Response: -2.33

---

assay: Primary qHTS for inhibitors of MERS-S pseudo-typed particle cell entry (AID 1479149); conditions: MERS-S pseudotyped particle entry, luciferase; at 57.1 µM (top of the series) unless noted; further: nearly all actives have a fitted effect of over 60% in size
Results filed as inconclusive are left out. The source made the active and inactive calls. The call rests on the fitted dose curve.
outcomeMeasure: outcome

Example cases with answers are listed next.
INSERT INTO results (molecule, result) VALUES
  ('Cc1cc2nc3c(=O)[nH]c(=O)nc-3n(C[C@@H](O)[C@@H](O)[C@@H](O)COP(=O)(O)O)c2cc1C', 'inactive [at 11.4 µM]'),
  ('C[C@@H]1O[C@@H](O[C@@H]2/C=C/C=C/C=C\C=C\C[C@H](C)OC(=O)/C=C/[C@H]3O[C@@H]3C[C@H](O)C[C@]3(O)C[C@@H](O)[C@@H](C(=O)O)[C@H](C2)O3)[C@H](O)[C@H](N)[C@@H]1O', 'inactive [at 11.4 µM]'),
  ('NCCCC[C@H](N)C(=O)O', 'inactive [at 0.573 µM]'),
  ('O=C(O)c1cc(O)c2c(c1)[O][Bi][O]2', 'inactive [at 0.573 µM]');

Query: outcome for CN[C@@H]1[C@H](O)[C@H](O[C@@H]2[C@H](O)[C@@H](O[C@H]3O[C@H]([C@@H](C)NC)CC[C@H]3N)[C@@H](N)C[C@H]2N)OC[C@]1(C)O ?
Response: inactive [at 11.4 µM]

Query: What about CC(=O)[O][Al][O]C(C)=O ?
Response: inactive [at 11.4 µM]

Query: What do we get for Nc1nc2c(c(=O)[nH]1)N(C=O)C(CNc1ccc(C(=O)N[C@@H](CCC(=O)O)C(=O)O)cc1)CN2 (some centres undefined) ?
Response: inactive [at 0.573 µM]

Just for reference, PubChem BioAssay (NCATS) is where these values come from.
